Hello, the source for this data is patent WO2011083140A1, in case you need it.

Each item that follows carries a reported IC50.
system tested: T1, human CXCR4 (human, UniProt P61073 1-352)
T1 construct: whole, on cells; Same receptor used on cells, on VLPs and in membrane extracts; also called hCXCR4; human chemokine receptor CXCR4
T1 sequence (P61073 whole entry): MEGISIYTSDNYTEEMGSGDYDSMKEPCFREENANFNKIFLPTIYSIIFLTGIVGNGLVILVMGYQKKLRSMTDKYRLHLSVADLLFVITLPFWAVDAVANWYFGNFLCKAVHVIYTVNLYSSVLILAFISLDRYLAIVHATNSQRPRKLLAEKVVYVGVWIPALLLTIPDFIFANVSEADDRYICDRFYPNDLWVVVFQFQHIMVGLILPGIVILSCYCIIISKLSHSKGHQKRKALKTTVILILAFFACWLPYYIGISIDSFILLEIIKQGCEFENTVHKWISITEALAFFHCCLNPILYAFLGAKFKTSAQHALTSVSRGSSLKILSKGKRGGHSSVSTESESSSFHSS
assay notes: SDF-1 displacement (competition with SDF-1 for CXCR4), Table C-3
The figure you give is taken to be in nM; do not add the unit.

binder	IC50, nM
4CXCR015A01 (VHH, not shown: small tags and cut ends, also called 15A1; P4CXCR15A01) VHH: EVQLVESGGGLVQAGGSLRLSCAASGRTFSRAAMGWFRQAPGKEREFVGCALSSAGSALTADSVKGRFTISRDNAKNMVYLQMNNLKPEDTAVYSCVAGGYCTRAGVYPYWGQGTQVTVSS	5.1

Next, consider the following binder.
Exam item: Fill in IC50 for record 4CXCR010E12 (VHH, also called P4CXCR10E12; not shown: C-terminal c-myc tag and His6 tag) VHH: EVQLVESGGGLVQAGGSLRLSCAVSGRTFTSYDMAWFRQAPGKERESVAAIRWTGSSTYYADSVKGRFTISRDNAKSTVYLQMNSLKPEDTAVYYCAARDTGRYRSRTYDYWGQGTQVTVSS
Marked response: 3
